Reported IC50 against PIK3CB (Human) (UniProt P42338), gathered from multiple publications, appears below.
MEASUREMENT_NAME: IC50

INSERT INTO measurements (molecule, measurement_name, observed) VALUES
  ('CNC(=O)[C@@H](C)Cn1cnc2ccc(-c3cnc(OC)c(NS(=O)(=O)c4cc(C)cc(Cl)c4)c3)cc2c1=O', 'IC50', '0.192 µM'),
  ('C[C@H](NC(=O)c1c(N)nn2cccnc12)c1cc2cccc(NCC(F)(F)F)c2c(=O)n1-c1ccccc1', 'IC50', '> 10 µM'),
  ('CC(C)N1CCC(NC(=O)c2nc([C@H](C)Nc3ncnc4scnc34)cc3cccc(Cl)c23)CC1', 'IC50', '> 10 µM'),
  ('C[C@H](NC(=O)c1nc(-c2cccc(S(=O)(=O)N3CCOCC3)c2)cnc1N)c1cc2cccc(Cl)c2c(=O)n1-c1ccccc1', 'IC50', '> 10 µM'),
  ('CNc1nccc(-c2cc(-c3nnc[nH]3)c3nc(C)n(-c4ccnc5c(F)ccc(F)c45)c3c2)c1F', 'IC50', '1.4 µM'),
  ('CC(=O)Nc1nc2ccc(-c3nn(Cc4cc5cccc(C)c5c(=O)n4C4CCC4)c4ncnc(N)c34)cc2s1', 'IC50', '< 1 µM'),
  ('Cn1cc(-c2nc3[nH]c(C(=O)N4CCC(N5CCOCC5)CC4)nc3c(N3CCOCC3)c2F)cn1', 'IC50', '> 10 µM'),
  ('CCNc1nc2ccc(-c3ccc4c(c3)CN(c3ccnc5cc(F)ccc35)CCO4)cc2[nH]1', 'IC50', '1.56 µM'),
  ('C=CC(=O)Nc1ccc(NS(=O)(=O)c2cccc(Nc3ncc4c(n3)N(C)c3ccc(C)cc3C(=O)N4C)c2)cc1', 'IC50', '> 10 µM'),
  ('Cc1cccc2cc(Cn3nc(-c4cc(O)cc(F)c4)c4c(N)ncnc43)n(-c3ccccc3OCCN3CCOCC3)c(=O)c12', 'IC50', '< 10 µM'),
  ('Nc1nc2cc(-c3ccc4ncc(C(=O)N5CCNCC5)n4c3)ccc2o1', 'IC50', '< 10 µM'),
  ('Nc1nc2cc(-c3ccc4ncc(C(=O)N5CCOCC5)n4c3)ccc2s1', 'IC50', '< 10 µM'),
  ('CNC(=O)C(C)Cn1cnc2ccc(-c3cnc(OC)c(NS(=O)(=O)c4ccc(F)cc4C(F)(F)F)c3)cc2c1=O (single isomer, unassigned)', 'IC50', '0.327 µM'),
  ('Cc1ccccc1-n1c(Cn2nc(/C=C/C(=O)N3CCOCC3)c3c(N)ncnc32)cc2cccc(C)c2c1=O', 'IC50', '> 10 µM'),
  ('Nc1nc2cc(-c3ccc4ncc(C(=O)N5CCOCC5)n4c3)cc(Cl)c2o1', 'IC50', '< 1 µM'),
  ('CC(=O)Nc1nc2ccc(-c3cc(F)c4oc(N)nc4c3)cc2s1', 'IC50', '< 0.1 µM'),
  ('COc1cc(-c2cccc3cc([C@H](C)NC(=O)c4ncc(C)nc4N)n(-c4ccccc4)c(=O)c23)ccn1', 'IC50', '> 10 µM'),
  ('C[C@H](NC(=O)c1c(N)nn2cccnc12)c1cc2cccc(-c3ccc(=O)n(C)c3)c2c(=O)n1-c1ccccc1', 'IC50', '> 10 µM'),
  ('COc1cnccc1-c1cccc2cc([C@H](C)Nc3ncnc4scnc34)n(-c3ccccc3)c(=O)c12', 'IC50', '1 to 10 µM'),
  ('Cc1ccccc1-n1c(Cn2nc(-c3ccc(F)c(O)c3)c3c(N)ncnc32)cc2cccc(C)c2c1=O', 'IC50', '< 10 µM'),
  ('C[C@H](Nc1ncnc2scnc12)c1cc2cccc(Cl)c2c(C(=O)NC2CCOCC2)n1', 'IC50', '> 10 µM'),
  ('C[C@H](Nc1ccc2c(c1)N(C)CCn1cc(N3C(=O)OC[C@H]3C(F)F)nc1-2)C(N)=O', 'IC50', '0.168 µM'),
  ('CCc1nn(Cc2cc3cccc(C)c3c(=O)n2-c2ccccc2C)c2ncnc(N)c12', 'IC50', '> 10 µM'),
  ('C[C@H](Nc1nc(N)ncc1-c1cnn(C)c1)c1cc2cccc(Cl)c2c(=O)n1-c1ccccc1', 'IC50', '1 to 10 µM');
